target-or-test-system: KRas WT (Homo sapiens)
Construct: Biotinylated KRas (corresponding to amino acids 1-169, produced at Accelegan Inc.); biotin (biotinylated); purchased Accelegan Inc
Sequence (P01116 1-169 isoform P01116-2): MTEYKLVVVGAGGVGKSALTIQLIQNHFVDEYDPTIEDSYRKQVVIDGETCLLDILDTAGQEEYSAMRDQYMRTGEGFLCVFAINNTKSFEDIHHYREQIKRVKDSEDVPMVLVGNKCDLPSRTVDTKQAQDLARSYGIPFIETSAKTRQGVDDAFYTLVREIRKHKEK
assay-method-text: KRas binding assay, TR-FRET displacement of Cy5 labelled tracer
measurement-parameters: 60-minute incubation at room temperature, 1% DMSO, pH 7.5
measure-name: IC50 (nM)

[
  {
    "compound": "CCc1c(F)ccc2cc(O)cc(-c3ncc4c(N5CC(C(=O)n6ccc(C)n6)C(C)(C)C5)nc(OC[C@@]56CCCN5C[C@H](F)C6)nc4c3F)c12 (stereo partly drawn)",
    "target-or-test-system": "KRas WT (Homo sapiens)",
    "IC50, nM": 716
  },
  {
    "compound": "CCc1c(F)ccc2cc(O)cc(N3CCc4c(nc(OC[C@@]56CCCN5C[C@H](F)C6)nc4NCCCC(=O)n4ccc(C)n4)C3)c12",
    "target-or-test-system": "KRas WT (Homo sapiens)",
    "IC50, nM": 113
  },
  {
    "compound": "CN(CCCC(=O)N(C)c1ccncc1)c1nc(OC[C@@]23CCCN2C[C@H](F)C3)nc2c(F)c(-c3ccc(F)c4sc(N)c(C#N)c34)c(Cl)cc12",
    "target-or-test-system": "KRas WT (Homo sapiens)",
    "IC50, nM": 9
  },
  {
    "compound": "CCc1c(F)ccc2cc(O)cc(-c3ncc4c(N5CCCC(C(=O)n6ccc(C)n6)CCC5)nc(OC[C@@]56CCCN5C[C@H](F)C6)nc4c3F)c12",
    "target-or-test-system": "KRas WT (Homo sapiens)",
    "IC50, nM": 483
  },
  {
    "compound": "CCc1c(F)ccc2cc(O)cc(-c3ncc4c(N(C)CC(C)CC(=O)N(C)C(C)=O)nc(OC[C@@]56CCCN5C[C@H](F)C6)nc4c3F)c12 (stereo partly drawn)",
    "target-or-test-system": "KRas WT (Homo sapiens)",
    "IC50, nM": 103
  },
  {
    "compound": "N#Cc1c(N)sc2c(F)ccc(-c3c(Cl)cc4c(N5CCC(C(=O)Oc6ccccc6)CC5)nc(OC[C@@]56CCCN5C[C@H](F)C6)nc4c3F)c12",
    "target-or-test-system": "KRas WT (Homo sapiens)",
    "IC50, nM": 170
  }
]

a: CCc1c(F)ccc2cc(O)cc(-c3ncc4c(N5CC[C@H]6[C@@H](C5)[C@H]6C(=O)N(C)C(C)=O)nc(OC[C@@]56CCCN5C[C@H](F)C6)nc4c3F)c12
b: O=C(Oc1ccc(F)cc1)C1CCN(c2nc(OCC34CCCN3CCC4)nc3c(F)c(-c4cccc5cccc(F)c45)ncc23)CC1
I need your help: which of the pair a , b has higher IC50? Use the label to indicate which entry you chose.
b
(b: 45000 nM, a: 41 nM)

* * *

target-or-test-system: KRas-mediated phosphorylation of ERK in A549 cells (Homo sapiens, UniProt P01116, G12S)
Construct: pERK HTRF read-out
Sequence (P01116 1-188 isoform P01116-2 G12S): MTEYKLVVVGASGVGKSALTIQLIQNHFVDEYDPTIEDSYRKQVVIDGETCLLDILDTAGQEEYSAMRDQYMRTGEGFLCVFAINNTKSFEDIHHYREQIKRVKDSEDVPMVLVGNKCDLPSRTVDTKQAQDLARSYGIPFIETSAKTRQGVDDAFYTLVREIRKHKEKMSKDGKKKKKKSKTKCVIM
assay-method-text: Inhibition of KRas-mediated phosphorylation of ERK (HTRF), A549 cells
Assay type: cell-based
measurement-parameters: HTRF pERK, 3 h incubation
measure-name: IC50 (nM)

// worked examples, IC50 included
[
  {
    "compound": "CCc1c(F)ccc2cc(O)cc(-c3ncc4c(N5CCCC(C(=O)n6ccc(C)n6)CCC5)nc(OC[C@@]56CCCN5C[C@H](F)C6)nc4c3F)c12",
    "measure-name": "IC50",
    "unit-abbrev": "nM",
    "endpoint-value": 334
  },
  {
    "compound": "CCc1c(F)ccc2cc(O)cc(-c3ncc4c(N5CCN(C(=O)n6ccnn6)CC5)nc(OC[C@@]56CCCN5C[C@H](F)C6)nc4c3F)c12",
    "measure-name": "IC50",
    "unit-abbrev": "nM",
    "endpoint-value": 1210
  },
  {
    "compound": "CCc1c(F)ccc2cc(O)cc(-c3ncc4c(N5CCCC(C(=O)N(C)C(C)=O)CC5)nc(OC[C@@]56CCCN5C[C@H](F)C6)nc4c3F)c12 (stereo partly shown)",
    "measure-name": "IC50",
    "unit-abbrev": "nM",
    "endpoint-value": 151
  },
  {
    "compound": "CCc1c(F)ccc2cc(O)cc(-c3ncc4c(N5CCC(C(=O)N(C)C(=O)C(C)C)CC5)nc(OC[C@@]56CCCN5C[C@H](F)C6)nc4c3F)c12",
    "measure-name": "IC50",
    "unit-abbrev": "nM",
    "endpoint-value": 1780
  },
  {
    "compound": "CCc1c(F)ccc2cc(O)cc(N3CCc4c(nc(OC[C@@]56CCCN5C[C@H](F)C6)nc4N4CCCC(C(=O)n5ccc(C)n5)CC4)C3)c12 (stereo partly shown)",
    "measure-name": "IC50",
    "unit-abbrev": "nM",
    "endpoint-value": 137
  }
]

1: CCc1c(F)ccc2cc(O)cc(-c3ncc4c(N(CC)CCCC(=O)n5ccc(C)n5)nc(OC[C@@]56CCCN5C[C@H](F)C6)nc4c3F)c12
2: CN(CCCC(=O)N(C)c1ccncc1)c1nc(OC[C@@]23CCCN2C[C@H](F)C3)nc2c(F)c(-c3ccc(F)c4sc(N)c(C#N)c34)c(Cl)cc12
I need your help: which of the pair 1 , 2 has higher IC50? Use the label to indicate which entry you chose.
2

A: CCc1c(F)ccc2cc(O)cc(-c3ncc4c(N5CC6CC(C(=O)n7ccc(C)n7)C6C5)nc(OC[C@@]56CCCN5C[C@H](F)C6)nc4c3F)c12 (stereo partly shown)
B: CCc1c(F)ccc2cc(O)cc(-c3ncc4c(N5CCC(C(=O)N(C)C(=O)COC)CC5)nc(OC[C@@]56CCCN5C[C@H](F)C6)nc4c3F)c12
I need your help: which of the pair A , B has higher IC50? Use the label to indicate which entry you chose.
B
(B: 281 nM, A: 61 nM)
